Sourced from ChEMBL document CHEMBL1139225

target_of_assay: Proteinase-activated receptor 1 (Homo sapiens, UniProt P25116)
Sequence (P25116 whole entry): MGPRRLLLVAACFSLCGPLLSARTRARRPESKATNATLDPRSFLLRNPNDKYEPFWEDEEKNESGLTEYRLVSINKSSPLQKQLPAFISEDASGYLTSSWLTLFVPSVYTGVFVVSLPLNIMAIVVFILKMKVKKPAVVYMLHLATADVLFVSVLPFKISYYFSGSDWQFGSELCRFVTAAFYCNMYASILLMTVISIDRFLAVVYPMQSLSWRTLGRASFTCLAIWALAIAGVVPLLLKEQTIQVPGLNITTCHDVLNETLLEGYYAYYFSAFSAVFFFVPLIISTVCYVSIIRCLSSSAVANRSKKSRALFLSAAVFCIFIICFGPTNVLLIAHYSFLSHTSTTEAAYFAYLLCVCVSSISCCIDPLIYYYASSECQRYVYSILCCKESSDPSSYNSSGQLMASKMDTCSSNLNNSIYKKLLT
experimental_details: Displacement of [3H]haTRAP from PAR1 in human platelet membrane
pIC50: −log10 of the molar value.
Lab note: anything with pIC50 at or over 7 counts as T; the rest go in F.

# bool: pIC50 of `C[C@H]1OC(=O)[C@@H]2C[C@@H]3CC(F)(F)CC[C@H]3[C@H](/C=C/c3ccc(-c4cccc(F)c4)cn3)[C@H]12` >= 7
T

Exam item: decide whether the reported pIC50 for `C[C@H]1OC(=O)[C@@H]2C[C@@H]3C[C@H](O)CC[C@H]3[C@H](/C=C/c3ccc(-c4cccc(F)c4)cn3)[C@H]12` is at least 7.
T

Is pIC50 at least 7? Consider `C[C@H]1OC(=O)[C@@H]2C[C@@H]3CC[C@H](O)C[C@H]3[C@H](/C=C/c3ccc(-c4cccc(C(F)(F)F)c4)cn3)[C@H]12`
F

Hello, I need to know if `C[C@H]1OC(=O)[C@@H]2C[C@H]3[C@@H](CCCC3(F)F)[C@H](/C=C/c3ccc(-c4cccc(C(F)(F)F)c4)cn3)[C@H]12` has measured pIC50 not below 7. Thanks!
T

Does the reported pIC50 for `C[C@H]1OC(=O)[C@@H]2C[C@@H]3CC(F)(F)CC[C@H]3[C@H](/C=C/c3ccc(-c4ccccc4Cl)cn3)[C@H]12` fall at or above the 7 mark?
T

* * *

experimental_details: AUC (0-6h) in rat after oral administration
Assay type: ADME, organism-based
Design: time < 6 hr, route oral
measurement_conditions: plasma
Kindly state AUC(0-t) at 6 h for each of the entries shown.
Provide the reading as a plain figure in ng·h/mL.

Value lookup for AUC(0-t) at 6 h; key = `C[C@H]1OC(=O)[C@@H]2C[C@H]3[C@@H](CCC[C@@H]3O)[C@H](/C=C/c3ccc(-c4cccc(C(F)(F)F)c4)cn3)[C@H]12`
5760

Sample `C[C@H]1OC(=O)[C@@H]2C[C@@H]3C[C@H](O)CC[C@H]3[C@H](/C=C/c3ccc(-c4cccc(C(F)(F)F)c4)cn3)[C@H]12` — what was its AUC(0-t) at 6 h?
6130

Reported AUC(0-t) at 6 h for `C[C@H]1OC(=O)[C@@H]2C[C@@H]3C[C@@H](O)CC[C@H]3[C@H](/C=C/c3ccc(-c4cccc(C(F)(F)F)c4)cn3)[C@H]12` : what is it?
3150

* * *

experimental_details: Cmax in Sprague-Dawley rat at 300 mg/kg, po after 1 day
Assay type: ADME, organism-based
Parameters: dose 300 mg/kg, route oral
measurement_conditions: in vivo
Give Cmax for every item shown.
Write down the numeric answer in ng/mL and omit the unit.

What value of Cmax has been recorded for this entry: `C[C@H]1OC(=O)[C@@H]2C[C@@H]3C[C@H](O)CC[C@H]3[C@H](/C=C/c3ccc(-c4cccc(C(F)(F)F)c4)cn3)[C@H]12`
58000

What does the data say about its Cmax? Entry: `C[C@H]1OC(=O)[C@@H]2C[C@@H]3CCCC[C@H]3[C@H](/C=C/c3ccc(-c4cccc(C(F)(F)F)c4)cn3)[C@H]12`
29000

Value lookup for Cmax; key = `C[C@H]1OC(=O)[C@@H]2C[C@@H]3C[C@@H](O)CC[C@H]3[C@H](/C=C/c3ccc(-c4cccc(C(F)(F)F)c4)cn3)[C@H]12`
11000

I have this compound here, `C[C@H]1OC(=O)[C@@H]2C[C@H]3[C@@H](CCC[C@@H]3O)[C@H](/C=C/c3ccc(-c4cccc(C(F)(F)F)c4)cn3)[C@H]12` , and I need its recorded Cmax.
29000
